Assay: soluble on expression in E. coli; label from the status in PepcDB or PDB records
Quantity Name: soluble on expression in E. coli

Residue Codes	Result
MAHHHHHHMLLKALKASFEANKRVYESVLLTFKGVDGYDVYNCSVPFSYKGKTHIYGRVEKRDIWAASHVRLFEETGKDEFTAVPELSWELEDPYIAKINNEMIFGGTRVRKNGNAILSYYGYFYRGTPVELNYFTTGPDYMKDIRVVPLQDGRLGVFSRVRTRAEVYVGFSTVDTIDHLTTEVIATAKAIDFIRPGTWGGVNQAYLLSSGKIGCIGHFAYNDTKPSGEPLMVYINISFVFDAETRQLDTEHVIGTKSCYPACPAKLPVLEDCVFASGIVMRSDGKCDLYSGLGDTHEGRITIDYPFHGYGNIVGQMIF	not soluble
MLEQVCQLARNAGDAIMQVYDGAKPMEYARKQDDSPVTAADIAAHTVILEGLRTLTPDIPVLSEEDPPAWEVRQHWQRYWLVDPLDGTKEFIKRNGEFTVNIALIEQGKPVLGVVYAPVLKVMYYAAEGKAWKEECGVRKQIQVRDARPPLVVISRSHTDDELTEYLQQLGEHQTTSIGSSLKFCLVAEGQAQLYPRFGPTSVWDTAAGHAIAVAAGAHVHDWQGKTLDYTPRESFLNPGFRVTIY	not soluble
